# Test system: Hepatitis C virus NS3 helicase
# experiment_summary: blockers of NS3h binding to ssDNA – biochemical, fluorescence polarization, LOPAC1280 library, primary screen (AID 687035)
# reported_conditions: Purified HCV NS3 helicase, Cy5-dT15 ssDNA binding fluorescence polarization; hits give high values; concentration not given here
property: inhibition (%)

O=C(CCCCCN1CCN(c2ccccc2-c2ccccc2)CC1)NC1CCCc2ccccc21 (centres undefined) ... 0
C=CCN1CCc2c(cc(O)c(O)c2Cl)C(c2ccccc2)C1 (centres undefined) ... -4
CC1C(=O)N(C)C(=O)c2nc[nH]c21 (centres undefined) ... -3
CCCn1c(=O)c2[nH]c(-c3ccc(OCC(=O)NCCN)cc3)nc2n(CCC)c1=O ... -2
